Origin of measurements: patent US20240084003A1

# target: T1, rhesus monkey CD22-ECD-His protein (rhesus monkey, UniProt H9G1X2 18-686)
# T1 construct: extracellular domain; also called monkey CD22 protein
# T1 sequence: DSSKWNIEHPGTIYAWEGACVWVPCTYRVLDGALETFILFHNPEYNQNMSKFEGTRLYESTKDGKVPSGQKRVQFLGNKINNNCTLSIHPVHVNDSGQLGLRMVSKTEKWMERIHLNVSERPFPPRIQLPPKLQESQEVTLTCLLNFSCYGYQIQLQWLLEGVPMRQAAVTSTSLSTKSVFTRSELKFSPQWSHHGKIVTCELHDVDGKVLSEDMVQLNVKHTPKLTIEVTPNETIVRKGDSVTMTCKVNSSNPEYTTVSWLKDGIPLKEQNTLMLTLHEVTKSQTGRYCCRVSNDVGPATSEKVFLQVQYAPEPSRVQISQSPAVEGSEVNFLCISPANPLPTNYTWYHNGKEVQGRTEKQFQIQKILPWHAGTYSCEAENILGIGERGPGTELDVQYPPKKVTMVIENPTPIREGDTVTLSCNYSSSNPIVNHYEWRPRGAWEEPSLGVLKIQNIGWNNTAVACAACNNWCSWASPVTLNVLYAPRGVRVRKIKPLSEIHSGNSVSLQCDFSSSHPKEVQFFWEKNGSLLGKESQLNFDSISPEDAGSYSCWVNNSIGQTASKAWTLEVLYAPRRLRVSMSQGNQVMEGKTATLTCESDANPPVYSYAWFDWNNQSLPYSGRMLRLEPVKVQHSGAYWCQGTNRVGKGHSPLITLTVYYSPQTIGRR
# assay-details: SPR (Biacore), antibody captured on Protein A chip, rhesus CD22 in solution
measurement-label: Kd (nM)

[[record]]
binder = "F2.205.9 (antibody, human IgG1, lambda, V domains shown, Chimeric IgG1 lambda) VH: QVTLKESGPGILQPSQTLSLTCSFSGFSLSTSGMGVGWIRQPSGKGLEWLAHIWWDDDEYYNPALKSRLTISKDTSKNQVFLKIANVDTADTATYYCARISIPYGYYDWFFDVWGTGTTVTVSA VL: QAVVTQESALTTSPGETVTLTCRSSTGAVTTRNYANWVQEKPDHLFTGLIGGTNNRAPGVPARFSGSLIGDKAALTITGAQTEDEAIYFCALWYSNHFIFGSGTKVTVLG"
unit_string = "nM"
experimental_value = 10.3

[[record]]
binder = "F1.172.13 (antibody, human IgG1, kappa, V domains shown, Chimeric IgG1 kappa) VH: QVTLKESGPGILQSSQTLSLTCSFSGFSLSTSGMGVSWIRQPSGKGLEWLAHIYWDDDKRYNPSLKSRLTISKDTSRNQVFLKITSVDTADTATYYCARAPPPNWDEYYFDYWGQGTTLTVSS VL: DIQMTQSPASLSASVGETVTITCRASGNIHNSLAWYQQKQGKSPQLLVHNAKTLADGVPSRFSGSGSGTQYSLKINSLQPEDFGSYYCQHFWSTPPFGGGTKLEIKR"
unit_string = "nM"
experimental_value = 6.9

